Kindly supply the reported melting point values for the records listed here.

Read the entry CCCc1nc2c(N)nc(C)c(C)c2n1CCCCCS(=O)(=O)c1ccc(F)cc1 and write its reported melting point. 130 to 132 °C

Read the entry CC(CCC(=O)C(C)(C)O)C1CCC2C3CC(O)C4CC(O)CCC4(C)C3CCC12C (stereo unspecified) and write its reported melting point. 189 to 191 °C

Read the entry COC(=O)c1c(-c2nccn2C)c2cnc(N3CCC[C@H]3CO)nc2n(Cc2ccc(OC)c(Cl)c2)c1=O and write its reported melting point. 142 to 145 °C

Read the entry O=C(CCCOc1cc(-c2ccccc2)ccc1O)NO and write its reported melting point. 148 to 152 °C

Read the entry O=C(O)COc1cc(Cl)ccc1C(=O)NCc1cccc(C(F)(F)F)c1 and write its reported melting point. 179 to 181 °C

Read the entry CCOC(=S)CC/C(C)=C/Cc1c(OC)c(C)c2c(c1OC(C)=O)C(=O)OC2 and write its reported melting point. 81 to 84 °C

Read the entry Cc1csc(C(O)(c2nc(C)cs2)C(F)(F)F)n1 and write its reported melting point. 140 to 142 °C

Read the entry CC(C)(C)c1cc(Cn2nc(CCCCCCCCc3nn(Cc4cc(C(C)(C)C)c(O)c(C(C)(C)C)c4)c(=O)o3)oc2=O)cc(C(C)(C)C)c1O and write its reported melting point. 142 °C

Read the entry CC(C)(NC(=O)CCNC(=O)OCc1ccccc1)c1ccccc1 and write its reported melting point. 96 to 97 °C

Read the entry Nc1nc(-c2ccc(-c3ccccc3)cc2)cn1N and write its reported melting point. > 280 °C

Read the entry C=C1Oc2cc(OS(=O)(=O)C(F)(F)F)ccc2C(=O)C1c1ccccc1 (stereo unspecified) and write its reported melting point. 133 to 135 °C

Read the entry CCCc1nc2c(N)nc(C)c(C)c2n1CCCCCS(=O)(=O)c1ccccc1 and write its reported melting point. 134 to 136 °C

Read the entry Cc1oncc1C(=O)Nc1ccc(-n2nc(C(F)(F)F)cc2C(F)(F)F)cc1 and write its reported melting point. 163 to 167 °C

Read the entry O=C1NCC(C(F)(F)F)C(=O)N1c1ccccc1 (stereo unspecified) and write its reported melting point. 215 to 216 °C

Read the entry O=C1CC(c2ccc(O)cc2)=Nc2ccc(N3CCOCC3)cc21 and write its reported melting point. 340 to 342 °C

Read the entry COC(=O)c1ccc(OC)cc1S(N)(=O)=O and write its reported melting point. 135 to 139 °C

Read the entry Cc1cc([N+](=O)[O-])c(Cl)cc1Cl and write its reported melting point. 40 to 44 °C

Read the entry O=C(CCC(=O)c1cccs1)Nc1cccc2cc(-c3nccs3)[nH]c12 and write its reported melting point. 140 to 141 °C

Read the entry N#Cc1ncn2c(C(F)(F)F)cc(-c3ccccn3)nc12 and write its reported melting point. 205 °C

Read the entry COc1ccc2c(c1)Sc1c(cc(OC)c(OC)c1Br)N2 and write its reported melting point. 223 to 225 °C

Read the entry O=C(Oc1ccc(Oc2ccc(C(F)(F)F)cn2)cc1)N1CCS(=O)CC1 and write its reported melting point. 156 to 157 °C

Read the entry Cn1ncc2c(c1=O)S(=O)CCNC2Cc1ccccc1 (stereo unspecified) and write its reported melting point. 162 to 163 °C

Read the entry CSc1nc(O)nn1C and write its reported melting point. 128 to 130 °C

Read the entry Cc1cc(C#N)cc(C(=O)Nc2ccc(F)c(Cl)c2)n1 and write its reported melting point. 204 °C

Read the entry NC(=O)N1CC(Oc2cccc(F)c2)C1 and write its reported melting point. 169 to 170 °C

Read the entry Clc1ccc(-c2nc(Cl)nc(Cl)n2)c(Cl)c1 and write its reported melting point. 118 °C

---

measureName: melting point

Read the entry CC1(C)N=C(n2ccc(O)cc2=O)c2cc(Br)ccc2O1 and write its reported melting point. 171 to 172 °C

Read the entry COC(=O)C1(CCCN2CCN(c3ccccc3)CC2)Sc2ccccc2CCC1O (stereo not given) and write its reported melting point. 152 to 154 °C

Read the entry O=C(Nc1ccccc1)c1ccc(C(=O)Nc2nnc(-c3cc(Cl)cc(Cl)c3O)s2)cc1 and write its reported melting point. 342 °C

Read the entry OC(CNCCC1c2ccccc2COc2ccccc21)COc1ccccc1 (stereo not given) and write its reported melting point. 136 to 138 °C

Read the entry O=C(Nc1ccc2[nH]c(=O)oc2c1)C(=O)N1CCC(Cc2ccccc2)CC1 and write its reported melting point. 190 to 193 °C

Read the entry O=Cc1ccc2c(c1)Cc1cc(Br)ccc1-2 and write its reported melting point. 161 to 170 °C

Read the entry C#CCn1cc(CO)c([N+](=O)[O-])c1 and write its reported melting point. 60 °C

Read the entry COC1C2=C3C(=CN1OC)OCCC3CC(C(N)=O)C2 (stereo not given) and write its reported melting point. 224 to 226 °C

Read the entry Oc1c2c(c(O)c3ccccc13)CCCC2 and write its reported melting point. 210 to 212 °C

Read the entry Nc1nc(N)nc(C2CCC(c3nc(N)nc(N)n3)CC2)n1 (stereo not given) and write its reported melting point. 317 to 321 °C

Read the entry N#Cc1c(N2CCc3ccccc3CC2)nc(COC2CCCCO2)[nH]c1=O (stereo not given) and write its reported melting point. 180 to 183 °C

Read the entry CCOC(=O)c1cc(C)cc(-c2ccc(NC(=O)OCc3ccccc3)cc2)n1 and write its reported melting point. 184 to 185 °C

Read the entry CCc1c(N)c(C(N)=O)nn1C1CN(CC)C1 and write its reported melting point. 155 to 157 °C

Read the entry Cc1nc(-n2cnn(CC3CC3(F)F)c2=O)sc1C(=O)NCc1cccnc1 (stereo not given) and write its reported melting point. 160 to 161 °C

Read the entry COc1ccc(CC(C)N)cc1S(N)(=O)=O (stereo not given) and write its reported melting point. 180 °C

Read the entry CS(=O)(=O)OCc1cc(-c2ccc3occc3c2)nn(Cc2ccc(F)cc2)c1=O and write its reported melting point. 162 to 165 °C

Read the entry COc1cc2ncnc(N3CCCN(C(=O)Nc4ccc([N+](=O)[O-])cc4)CC3)c2cc1OC and write its reported melting point. 243 to 244 °C

Read the entry O=C(c1ccc([N+](=O)[O-])cc1[N+](=O)[O-])N1CCOCC1 and write its reported melting point. 159 to 161 °C

Read the entry O=C(N[C@@H](CCC1CCCCC1)[C@@H](O)[C@@H](O)CN1CCOCC1)OCc1ccccc1 and write its reported melting point. 124 to 125 °C

Read the entry CCOC(=O)CCCCCBr and write its reported melting point. 34.5 to 36 °C

Read the entry CCCc1nc(N2CCc3ccccc3CC2)c(C#N)c(=O)[nH]1 and write its reported melting point. 191 to 193 °C

Read the entry CC(C)(C)OC(=O)CON=C(c1ccccc1)c1cc2ccncc2[nH]1 and write its reported melting point. 47 to 52 °C

Read the entry Cc1nn(-c2cnccn2)c(-c2ccccc2)c1CC(=O)O and write its reported melting point. 125 °C

Read the entry CCOC(=O)C(C)OCC#Cc1nc(Cl)ccc1N (stereo not given) and write its reported melting point. 70 °C

Read the entry Cc1c(-c2ccnc(Nc3ccc(C(=O)N4CCOCC4)cc3)n2)cccc1[N+](=O)[O-] and write its reported melting point. 187 to 188 °C

---

measureName: melting point

Read the entry COc1ccc(COCc2nnc3n2-c2ccc(Cl)cc2C(c2ccccc2Cl)=NC3)cc1 and write its reported melting point. 235 to 237 °C

Read the entry OCCNc1nc(N2CCNCC2)nc2c1SCCC2 and write its reported melting point. 116 to 120 °C

Read the entry CCOC(=O)COc1cc2cc(C3CCCCC3)sc2c(Cl)c1Cl and write its reported melting point. 73 to 75 °C

---

measureName: melting point

Read the entry CC1(C)CC(NS(C)(=O)=O)c2cc(OCc3ccccc3)ccc2O1 (configuration not stated) and write its reported melting point. 162 to 165 °C

Read the entry CCC1(CC)CSSC[C@@H](C(=O)O)NC1=O and write its reported melting point. 127 to 128 °C

Read the entry O=[N+]([O-])c1ccc(OC2CCCC2)cc1NC1CCCCC1 and write its reported melting point. 98 °C

Read the entry COC1=C(OC)C(=O)C2=C(CC(CCCOc3ccc(C(=O)N(C)C)cc3)C2)C1=O and write its reported melting point. 100 to 102 °C

Read the entry C=C(c1cncn1Cc1ccccc1)C(c1ccc(C)cc1)c1ccc(C)cc1 and write its reported melting point. 216 to 220 °C

Read the entry CC(Cl)(Cl)C(NC(=O)c1cc(F)cc(F)c1)Nc1c(Nc2cccnc2)c(=O)c1=O (configuration not stated) and write its reported melting point. 231 to 232 °C

Read the entry COCc1c(C=O)ncc2[nH]c3cccc(Cc4ccc(Cl)cc4)c3c12 and write its reported melting point. 248 to 250 °C

Read the entry CC(=S)NC[C@H]1CN(c2ccc(N3CCN(C)C3=O)c(F)c2)C(=O)O1 and write its reported melting point. 168 °C

Read the entry CCOC(=O)c1ccc(NCC(C)Oc2cccc3ccccc23)cc1 (configuration not stated) and write its reported melting point. 110 to 112 °C

Read the entry CC(=O)SC[C@H](NC(=O)C(C)C)C(=O)NCCSC(=O)C(C)C and write its reported melting point. 100 to 102 °C

Read the entry COCC(=O)N1CCc2nc3ccccc3c(C)c2CC1 and write its reported melting point. 116 °C

Read the entry CC(C)c1c(C(=O)Cl)n(-c2ccc(F)cc2)c(=O)c2ccccc12 and write its reported melting point. 113 to 115 °C
